Entry source: paper PMC4072508

- target_of_assay: Bcl-xL, Q07817
- Sequence (Q07817 1-209): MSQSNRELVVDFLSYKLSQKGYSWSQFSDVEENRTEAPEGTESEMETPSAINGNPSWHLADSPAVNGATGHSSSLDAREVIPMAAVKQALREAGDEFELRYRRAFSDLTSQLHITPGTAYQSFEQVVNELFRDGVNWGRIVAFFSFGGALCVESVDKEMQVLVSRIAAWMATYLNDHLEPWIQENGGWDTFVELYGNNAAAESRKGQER
- assay_explanation: peptide SPOT array, c-Myc-tagged receptor at 1 uM or 100 nM, anti-c-Myc-Cy3
Measured SPOT signal as a fraction of Bim BH3's signal on the same receptor and array, listed per entry.
parameter: SPOT signal as a fraction of Bim BH3's signal on the same receptor and array

{"binder": "MGVLAAAARCDVRGADRMSKWTSKRG [MRPL41]", "numeric_result": 0.56}
{"binder": "FERVEQMCIQDKEVGDRVNYIKRSLQ [TRPM7]", "numeric_result": 0.03}
{"binder": "FPDARDMVRYLGDFADTLGLRVQYNT [FOXRED2]", "numeric_result": 0.03}
{"binder": "TVATRRLSGFDRTLADRLEGTKELLS [MINA]", "numeric_result": 0.29}
{"binder": "RRRLLLASKELHQVAHDLDDELAWVQ [SPTBN4]", "numeric_result": 0.06}
{"binder": "QCPIFRLGDIFRETLDNFSDVAIQGG [P2RX7]", "numeric_result": 0.06}
